Target: Histone deacetylase 3 (Homo sapiens, UniProt O15379)
Sequence (O15379 whole entry): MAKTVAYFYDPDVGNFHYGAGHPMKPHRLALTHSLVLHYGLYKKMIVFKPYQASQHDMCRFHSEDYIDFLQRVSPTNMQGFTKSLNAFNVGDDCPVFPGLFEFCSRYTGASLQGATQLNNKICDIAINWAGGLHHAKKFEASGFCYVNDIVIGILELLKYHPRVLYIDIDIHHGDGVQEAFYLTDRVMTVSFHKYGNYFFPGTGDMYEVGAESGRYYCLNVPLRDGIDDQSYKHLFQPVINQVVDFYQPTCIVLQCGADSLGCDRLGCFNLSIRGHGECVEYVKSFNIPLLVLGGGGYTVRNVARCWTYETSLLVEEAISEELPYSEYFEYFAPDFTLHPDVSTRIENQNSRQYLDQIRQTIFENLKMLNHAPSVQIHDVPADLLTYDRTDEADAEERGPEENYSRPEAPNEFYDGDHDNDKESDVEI
Experiment: Inhibition of HDAC3 (unknown origin) incubated for 30 mins in presence of BSA and DTT by fluorescence assay
Provide the reported pIC50 of each item.
Scale: pIC50 equals -log10([C]), with [C] in mol/L.

# pIC50 (molecule: CC(C)[C@@H]1NC(=O)[C@]2(C)CSC(=N2)c2csc(n2)CNC(=O)C[C@@H](/C=C/CCSSC[C@H](NC(=O)OC(C)(C)C)C(=O)OC(C)(C)C)OC1=O ) is 9.22

Given item CC(C)[C@@H]1NC(=O)[C@]2(C)CSC(=N2)c2csc(n2)CNC(=O)C[C@@H](/C=C/CCSSCC/C=C/[C@@H]2CC(=O)NCc3nc(cs3)C3=N[C@@](C)(CS3)C(=O)N[C@@H](C(C)C)C(=O)O2)OC1=O , the value recorded as its pIC50 is 9.52

====

Biological target: Histone deacetylase 11 (Homo sapiens, UniProt Q96DB2)
Sequence (Q96DB2 whole entry): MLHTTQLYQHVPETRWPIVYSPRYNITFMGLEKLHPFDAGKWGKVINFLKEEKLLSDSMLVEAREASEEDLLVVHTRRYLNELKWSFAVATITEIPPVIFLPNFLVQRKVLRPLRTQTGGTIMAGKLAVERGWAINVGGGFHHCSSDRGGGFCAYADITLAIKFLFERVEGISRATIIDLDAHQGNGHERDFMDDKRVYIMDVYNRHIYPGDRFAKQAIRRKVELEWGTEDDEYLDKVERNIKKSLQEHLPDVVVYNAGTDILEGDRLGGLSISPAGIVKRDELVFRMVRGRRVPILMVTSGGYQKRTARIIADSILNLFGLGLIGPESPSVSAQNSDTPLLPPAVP
Experiment: Inhibition of HDAC11 (unknown origin) incubated for 3 hrs in presence of BSA and DTT by fluorescence assay
OUTCOME_MEASURE: IC50 (nM)
Could you give me the number in nM? Just the number is fine.

The compound CC(C)[C@@H]1NC(=O)[C@]2(C)CSC(=N2)c2csc(n2)CNC(=O)C[C@@H](/C=C/CCSSCC/C=C/[C@@H]2CC(=O)NCc3nc(cs3)C3=N[C@@](C)(CS3)C(=O)N[C@@H](C(C)C)C(=O)O2)OC1=O showed IC50 equal to 0.1

get_value(item= CC(C)[C@@H]1NC(=O)[C@]2(C)CSC(=N2)c2csc(n2)CNC(=O)C[C@@H](/C=C/CCSSC[C@H](NC(=O)OC(C)(C)C)C(=O)OC(C)(C)C)OC1=O , readout=IC50) returns 0.2

These data points were gathered from ChEMBL document CHEMBL3352121.
